Data origin: PubChem BioAssay AID2156

Target: Potassium voltage-gated channel subfamily KQT member 2 (Rattus norvegicus)
Assay: rat KCNQ2 potassium channel inhibitors, primary screen, cell-based, CHO-K1, FluxOR thallium flux, B-score (AID 2156)
Details: 20 min, at 10 µM
Hit rate of the full screen: of about 310,000 compounds, about 3,400 (1.1%) were called active.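 The calls were made as follows: active = fluorescence ratio B-score at most minus 3 library SDs, with starting brightness B-score within 2 library SDs (cut at about -5.5 in these data); inactive = the rest, inconclusive results apart.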 What follows is part of a selection rich in actives, with near analogues and random picks from the rest.
Classes used: active, inactive

INSERT INTO results (compound, group) VALUES
  ('COc1ccc(Cc2nnc(SCC(=O)N(c3ccccc3)C(C)C)n(N)c2=O)cc1', 'inactive'),
  ('O=C(Nc1cccc(Cl)c1N1CCOCC1)c1cccnc1', 'inactive'),
  ('COc1cccc(N2CC(NS(=O)(=O)c3cccs3)CC2=O)c1 (stereo unspecified)', 'inactive'),
  ('CC(=O)N(C1=C(Cl)C(=O)c2ccccc2C1=O)c1ccc(C(=O)O)cc1', 'active'),
  ('O=C(Nc1cccc(Cl)c1N1CCOCC1)c1ccc2c(c1)OCCO2', 'active'),
  ('CC(=O)Nc1cccc(OCC(=O)/C=C2\N(C)c3ccccc3C2(C)C)c1', 'active');

----------
Molecular target: Potassium voltage-gated channel subfamily KQT member 2 (Rattus norvegicus) (UniProt O88943)
Sequence (O88943 whole entry, looked up): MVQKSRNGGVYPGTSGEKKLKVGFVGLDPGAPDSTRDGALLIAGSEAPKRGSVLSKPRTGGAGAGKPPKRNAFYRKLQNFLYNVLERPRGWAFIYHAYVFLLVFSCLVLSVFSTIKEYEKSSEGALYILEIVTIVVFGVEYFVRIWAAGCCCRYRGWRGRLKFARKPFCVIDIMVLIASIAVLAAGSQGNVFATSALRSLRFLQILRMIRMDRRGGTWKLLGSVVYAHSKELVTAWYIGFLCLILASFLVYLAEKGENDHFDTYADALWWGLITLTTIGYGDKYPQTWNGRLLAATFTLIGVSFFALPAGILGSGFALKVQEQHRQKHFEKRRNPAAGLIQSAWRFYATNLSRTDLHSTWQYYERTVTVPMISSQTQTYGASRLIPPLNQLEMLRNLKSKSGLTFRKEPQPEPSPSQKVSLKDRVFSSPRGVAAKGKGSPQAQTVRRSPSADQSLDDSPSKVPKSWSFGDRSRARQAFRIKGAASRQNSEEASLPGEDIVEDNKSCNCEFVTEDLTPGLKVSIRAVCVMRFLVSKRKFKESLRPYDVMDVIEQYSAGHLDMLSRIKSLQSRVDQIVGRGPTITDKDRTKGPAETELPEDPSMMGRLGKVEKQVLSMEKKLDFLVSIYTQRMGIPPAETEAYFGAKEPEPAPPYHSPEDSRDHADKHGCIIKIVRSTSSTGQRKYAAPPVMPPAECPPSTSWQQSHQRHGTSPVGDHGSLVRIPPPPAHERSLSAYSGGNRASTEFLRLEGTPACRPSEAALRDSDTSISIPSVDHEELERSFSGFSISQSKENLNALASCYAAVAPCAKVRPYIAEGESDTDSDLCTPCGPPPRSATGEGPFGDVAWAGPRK
Test: rat KCNQ2 potassium channel inhibitors, primary screen, cell-based, CHO-K1, FluxOR thallium flux, B-score (AID 2156)
Conditions: 20 min, at 10 µM
Out of some 310,000 compounds screened, about 3,400 (1.1%) were called active.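 The calls were made as follows: active = fluorescence ratio B-score at most minus 3 library SDs, with starting brightness B-score within 2 library SDs (cut at about -5.5 in these data); inactive = the rest, inconclusive results apart.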 Many of the other results were omitted from the sample, so actives are more common in it than they were.
Classes used: T for active, F for inactive

INSERT INTO assay_data (molecule, group) VALUES
  ('O=C(CCCN1C(=O)/C(=C/c2ccco2)SC1=S)Nc1ccccc1', 'F'),
  ('CCOC(=O)c1sc(=NC(=O)c2ccc(Br)cc2)n(C)c1C', 'F'),
  ('CCOC(=O)C1CCN(C(c2cc3cc(C)cc(C)c3[nH]c2=O)c2nnnn2C2CCCCC2)CC1 (stereo unspecified)', 'F'),
  ('CCOC(=O)C1=C(C)Nc2sc(C(=O)c3ccc(Br)cc3)c(N)c2C1c1ccc(C(=O)OC)cc1 (stereo unspecified)', 'T'),
  ('CCOC(=O)CSc1nc2c(c(=O)n(C)c(=O)n2C)n1Cc1ccccc1F', 'F'),
  ('COc1ccccc1-c1n[nH]c2c1[C@H](C)CC[C@H]2C(C)C', 'T'),
  ('CC(C)(C)n1nnnc1C(c1cccs1)N(Cc1cccnc1)CC1CCCO1 (stereo unspecified)', 'F'),
  ('O=C(COc1ccccc1)Nc1ccc(F)cc1', 'F'),
  ('O=C(NCCCN1CCCC1=O)c1cccc(S(=O)(=O)NCc2ccccc2)c1', 'F'),
  ('CCOC(=O)CSc1nc2c(sc(=S)n2CCc2ccccc2)c(=O)n1Cc1ccco1', 'T'),
  ('Cc1ccc(-c2nn(-c3ccc(F)cc3)cc2C(=O)NCC(c2cccs2)N2CCOCC2)cc1 (stereo unspecified)', 'F'),
  ('Cc1csc(=O)n1CC(=O)OCC(=O)N(CC(C)C)c1c(N)n(Cc2ccccc2)c(=O)[nH]c1=O', 'F'),
  ('Cc1ccc2c(c1)N(C(=O)CCC(=O)N1CCc3ccccc3C1)CCO2', 'T'),
  ('COc1ccc(CCNC(=S)N2CCN(S(=O)(=O)c3ccc(F)cc3)CC2)cc1', 'F'),
  ('O=C(NCC1CCCO1)c1cc(-c2ccccc2)nc2ccccc12 (stereo unspecified)', 'F'),
  ('C=CCn1c(SCc2csc(C)n2)nc2scc(-c3ccc(C)o3)c2c1=O', 'T'),
  ('CC1CCN(C(=O)COC(=O)c2cc(S(=O)(=O)N3CCOCC3)ccc2Cl)CC1', 'F'),
  ('Cc1ccc(OCCNC(=O)CCNS(=O)(=O)c2ccc(Br)cc2)cc1', 'F'),
  ('CCOc1ccc(/C=C/C(=O)N(CC)CC(=O)NCc2cccs2)cc1OC', 'F'),
  ('CCOc1ccc(CN(Cc2ccco2)C(c2cccs2)c2nnnn2C(C)(C)C)cc1 (stereo unspecified)', 'T'),
  ('CC(=O)n1cc([C@H]2C=C(C(=O)N3CCOCC3)O[C@@H](OCc3ccc(CO)cc3)C2)c2ccccc21', 'F'),
  ('C=CCn1c(SCc2c(C)noc2C)nc2sc3c(c2c1=O)CCC(C)C3 (stereo unspecified)', 'F'),
  ('O=C(COC(=O)c1cccc(Cl)c1)Nc1ccc2[nH]c(=O)[nH]c2c1', 'F'),
  ('O=C(OCC(=O)N(CCc1ccccc1)Cc1ccccc1)c1ccccc1[N+](=O)[O-]', 'T'),
  ('CCCNC(=O)c1ccc(N2CCC3(CC2)CC(c2cccc(Br)c2)=NO3)c(NC(=O)c2ccco2)c1', 'F'),
  ('O=C(NCC(c1ccco1)N1CCc2ccccc2C1)c1ccccc1Cl (stereo unspecified)', 'F'),
  ('Cc1cc(C)c2[nH]c(=O)c(C(c3nnnn3Cc3ccc4c(c3)OCO4)N3CCCC3)cc2c1 (stereo unspecified)', 'T'),
  ('Cc1cc(C)cc(NC(=O)COc2coc(CN3CCN(c4ccccc4)CC3)cc2=O)c1', 'F'),
  ('CC1(C)C=Cc2c(ccc3c2OC[C@@H](c2ccc(O)cc2O)C3)O1', 'T'),
  ('COc1ccc(OC)c(C(=O)c2ccc(Cl)cc2)c1', 'F'),
  ('CN1CCN(C(=O)C2=C[C@H](c3ccc4c(c3)OCO4)C[C@H](OCc3ccc(CO)cc3)O2)CC1', 'F'),
  ('CCOC(=O)CSc1nnc(-c2ccco2)n1C', 'F'),
  ('O=C(O/N=C(/c1ccccc1)c1ccncc1)c1ccccc1[N+](=O)[O-]', 'F'),
  ('C=CCNC(=O)CSc1nc2scc(-c3ccco3)c2c(=O)n1CC=C', 'F'),
  ('COC(=O)C1=C(C)N(C(C)c2ccccc2)C(=O)/C1=C\c1ccco1 (stereo unspecified)', 'T'),
  ('COc1ccc(S(=O)(=O)NCCCc2ccccc2)cc1', 'F'),
  ('COCCN(C(=O)COC(=O)Cc1cccc(OC)c1)c1c(N)n(Cc2ccccc2)c(=O)[nH]c1=O', 'F'),
  ('CCOC(=O)C1CCN(C(=O)COC(=O)C2CCN(S(=O)(=O)c3ccc4c(c3)OCCO4)CC2)CC1', 'F'),
  ('Cc1ccc(C)c(OCCC(=O)OCC(=O)NC(=O)NCc2ccccc2)c1', 'F'),
  ('CN(C)CCn1c2c(c(SCC(=O)Nc3ccccc3C(F)(F)F)nc1=O)CCCC2', 'F'),
  ('CN1CCN(S(=O)(=O)c2ccc(Nc3ccc(F)cc3)nc2)CC1', 'F');

----------
Target: Potassium voltage-gated channel subfamily KQT member 2 (Rattus norvegicus) (UniProt O88943)
Assay: rat KCNQ2 potassium channel inhibitors, primary screen, cell-based, CHO-K1, FluxOR thallium flux, B-score (AID 2156)
Details: 20 min, at 10 µM
The whole screen tested about 310,000 compounds, of which about 3,400 (1.1%) were called active.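 How the source made its calls: active means fluorescence ratio B-score at most minus 3 library SDs, with starting brightness B-score within 2 library SDs (cut at about -5.5 in these data); inactive means the rest, inconclusive results apart.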 This is one part of a sample in which actives are shown more often than they occur.
Classes used: active, inactive

INSERT INTO measurements (compound, group) VALUES
  ('Cc1cc(OCC(=O)Nc2c(C)n(C)n(-c3ccccc3)c2=O)ccc1[N+](=O)[O-]', 'inactive'),
  ('CN(CC(=O)Nc1cccc(F)c1)C(=O)C1=COCCO1', 'inactive'),
  ('Cc1ccc(C2=Nc3c(ccc4ccccc34)C(c3ccncc3)=NN2)cc1', 'active'),
  ('COc1cccc(CNc2nc3nc4c(c(=O)n3[nH]2)CCC4)c1', 'inactive'),
  ('CCOC(=O)c1c(NC(=O)CN2C(=O)NC3(CCC(C)CC3)C2=O)sc(C)c1CC (stereo unspecified)', 'inactive'),
  ('Cc1cc(OCCCN2CCN(Cc3ccccc3)CC2)ccc1[N+](=O)[O-]', 'inactive'),
  ('CCOc1ccccc1-c1cc(C(=O)N2CCOCC2)c2ccccc2n1', 'inactive'),
  ('O=C(c1cc(-c2ccc(Cl)s2)nc2ccccc12)N1CCOCC1', 'active'),
  ('CCOc1ccc2c(c1)C(c1ccc(C)cc1)=NNC(c1ccc(C)cc1)=N2', 'inactive'),
  ('CC(=O)N1CCN(C(=O)c2cc(-c3ccc(Cl)s3)nc3ccccc23)CC1', 'inactive'),
  ('c1ccc(-c2nc(NCc3ccco3)c3ccccc3n2)cc1', 'inactive');

----------
Target: Potassium voltage-gated channel subfamily KQT member 2 (Rattus norvegicus)
Assay: rat KCNQ2 potassium channel inhibitors, primary screen, cell-based, CHO-K1, FluxOR thallium flux, B-score (AID 2156)
Conditions: 20 min, at 10 µM
Hit rate of the full screen: of about 310,000 compounds, about 3,400 (1.1%) were called active.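 Rule for the calls: active = fluorescence ratio B-score at most minus 3 library SDs, with starting brightness B-score within 2 library SDs (cut at about -5.5 in these data); inactive = the rest, inconclusive results apart.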 This excerpt belongs to a sample that is enriched for actives.
Classes used: Y (active), N (inactive)

INSERT INTO assay_data (molecule, group) VALUES
  ('CCc1ccccc1NC(=O)/C(=C/c1ccccc1)c1ccccc1', 'Y'),
  ('COc1ccc(S(=O)(=O)N2CCOC23CCN(S(=O)(=O)c2ccc([N+](=O)[O-])cc2)CC3)cc1', 'N'),
  ('CC(OC(=O)C1CC(=O)N(Cc2ccccc2)C1)C(=O)Nc1ccccc1[N+](=O)[O-] (centres undefined)', 'N'),
  ('O=S(=O)(Nc1cccc(-c2ccc(N3CCOCC3)nn2)c1)c1ccc(Cl)c(Cl)c1', 'N'),
  ('CN(c1ccc(OCC(=O)O)cc1)S(=O)(=O)c1ccc2ccccc2c1', 'N'),
  ('CC(C)CN(C(=O)Cn1c(=O)cnc2ccccc21)C1CCS(=O)(=O)C1 (centres undefined)', 'N'),
  ('Cc1cc(OCC(=O)N(C)c2c(N)n(Cc3ccccc3)c(=O)[nH]c2=O)c(C(C)C)cc1Cl', 'N'),
  ('COc1cc(OC)cc(C(=O)NNC(=O)CNC(=O)c2ccc(Br)o2)c1', 'N'),
  ('CCC1(c2ccccc2)NC(=O)N(CC(=O)Nc2ccccc2C(=O)NC2CCCC2)C1=O (centres undefined)', 'N');
